Assay: melting temperature; fluorescence melt of hairpins on a sequencing array, two-state fit, raised by 9.35 °C to match UV melts
Settings: sodium 0.088 M
Category scheme (Tm): range 1 = under 40 °C, range 2 = from 40 °C up to 60 °C, range 3 = 60 °C and over

Q. Please classify: GCTAACCGAAAGGTAAGC (((.(((....))).)))
A. range 2

Q. Please classify: GTCAACGGAAACGTCGAC (((.(((....))).)))
A. range 2

Q. Please classify: CGCGCGGAAACGCCCGCG ((((((....)))..)))
A. range 2

Q. Please classify: GTATCGCGAAAGCGTTAC (((.(((....))).)))
A. range 2

Q. Please classify: GATCCCTGGTGGGATC ((((((....))))))
A. range 2

Q. Please classify: GCGTCCGGAAACGGGTGC ((..(((....)))..))
A. range 2

Q. Please classify: GGCTACGAAAGTACAGCC ((((((....)))..)))
A. range 2

Q. Please classify: GCAGGGGAAACCCTGC ((((((....))))))
A. range 3

Q. Please classify: GGCCGAGGAAACCCAGCC (((.(.(....).).)))
A. range 1

Q. Please classify: GTAGTAGGAAACCACTAC (((((.(....).)))))
A. range 1

Q. Please classify: TCGCTGAAAAGCGA (((((....)))))
A. range 3

Q. Please classify: GCCGCGCGAAAGCCCTGC ((.(.((....)).).))
A. range 1

Q. Please classify: GATCGATTACTCGATC ((((((....))))))
A. range 2

Q. Please classify: GATCGTCAACACGATC ((((((....))))))
A. range 2

Q. Please classify: GCGGCAAGCCGC ((((....))))
A. range 3

Q. Please classify: GATCACTGGAGTGATC ((((((....))))))
A. range 2

Q. Please classify: GAAAATGCGAAAGCATTC (((..(((....))))))
A. range 1

Q. Please classify: GGACAGGCGAAAGCCTCC (((..(((....))))))
A. range 1

Q. Please classify: GTCCCTCCGAAAGGAGAC (((..(((....))))))
A. range 1

Q. Please classify: GTTGGTGGAAACGTCAAC ((((..(....)..))))
A. range 1

Q. Please classify: GGGCACGAAAGTGAGCCC ((((((....)))..)))
A. range 2

Q. Please classify: GGGTGAGGAAACTTGCCC (((..((....))..)))
A. range 2

Q. Please classify: GCAACCCGAAAGGGTGC (((.(((....))))))
A. range 3

Q. Please classify: GCAGAATCGAAAGATTGC (((..(((....))))))
A. range 1

Q. Please classify: GAGTCCGAAAGGAACTC ((((((....))).)))
A. range 2

Q. Please classify: GCAAAGCCGAAAGGCTGC (((..(((....))))))
A. range 2

Q. Please classify: GGTTTTGAAAAAAACC ((((((....))))))
A. range 2

Q. Please classify: GCCTGCGAAAGCAACGGC ((((((....)))..)))
A. range 2

Q. Please classify: GATCAAAATATTGATC ((((((....))))))
A. range 1

Q. Please classify: GATTACACGAAAGTGATC (((..(((....))))))
A. range 1

Q. Please classify: GGCGATGGAAACGTCGCC (((((.(....).)))))
A. range 3

FYI, the data here is from the array DNA melting data of Ke et al. (doi:10.1101/2024.01.08.574731).
